tested on: SNB-75 CNS; test: NCI-60 one-dose screen, 48 h (100 = growth as untreated, 0 = no growth, -100 = all killed); details: 10 µM unless noted
The panel holds about 83,000 compounds, 20% with a hit somewhere; the sample as a whole holds those more often. Activity calls are given as the source filed them. How the source made its calls: active means growth percent below 10; inactive means the rest.
Form field: growth (one value per entry).

Sample answers from the record:
NC(=O)[C@@H]1CC2CCC1C2 (some centres undefined) : 85.1% (inactive)
CC(C)/C=C/CC[C@](C)(O)[C@H]1CC[C@]2(C)[C@@H]1CC[C@@H]1[C@@]3(C)C/C(=C/c4cccc(C(F)(F)F)c4)C(=O)C(C)(C)[C@@H]3CC[C@]12C : 62.8% (inactive)
COc1cccc(-c2nn(-c3ccccc3)cc2-c2ccnc(NCCCNS(=O)(=O)c3ccc(Br)cc3)c2)c1 : 75.2% (inactive)

Switching to the query record.
Request: Give SNB-75 CNS growth for the following molecule: Cc1ccc(-c2nc3ccc(Cl)cc3c(=O)n2N2C(=O)CSC2c2ccccc2Cl)cc1 (centres undefined)
Result: 36.1% (inactive)

* * *

test system: OVCAR-5 ovarian; experiment: NCI-60 one-dose screen, 48 h; conditions: 10 µM unless noted
This is part of a sample that, as a whole, favours compounds with a hit. Of some 83,000 tested, about 20% had one in any assay. The source made the active and inactive calls. The calls were made as follows: active = growth percent below 10; inactive = the rest.
Allowed answers: active, inactive

CC1(C)C(=O)/C(=C\c2ccccn2)C[C@]2(C)[C@H]3CC[C@@H]4[C@@H](C(=O)/C=C/c5ccccn5)CC[C@@]4(C)[C@]3(C)CC[C@@H]12 : active
Cc1ccc(-c2ccc(/C=C(\C#N)c3nc(-c4ccco4)cs3)o2)cc1 : inactive
COc1cccc(-c2nn(-c3ccccc3)cc2-c2ccnc(NCCCO)c2)c1 : inactive

Request: Query: recorded result category for CCCC(=O)N1CCCCC1CC (stereo unspecified) in this test
Result: inactive

* * *

tested on: CAKI-1 renal; experiment: NCI-60 one-dose screen, 48 h (100 = growth as untreated, 0 = no growth, -100 = all killed); details: 10 µM unless noted
Compounds without any hit were thinned out: in the full panel of roughly 83,000, 20% have a hit.
# binarize growth: threshold 80% inclusive, high side True, low side False

Please review the entries below; each comes with its answer.
C=C1C(=O)O[C@H]2[C@H]1CC/C(Cn1cc(-c3ccc(OC)cc3)nn1)=C\CC[C@@]1(C)O[C@@H]21 : False
COc1ccc2nc(-c3c(-c4ccccc4)nc4ncccn34)[nH]c2c1 : True
CC(c1ccccc1)N1C(=O)C(C2SC(=S)N(C(C)c3ccccc3)C2=O)SC1=S (centres undefined) : False
CC1(C)C(=O)CC[C@]2(C)[C@H]3C(=O)C=C4[C@@H]5C[C@@](C)(C(=O)NCCNCCN)CC[C@]5(C)CC[C@@]4(C)[C@]3(C)CC[C@@H]12 : True
C#CCC(C)(O)/C=C/C1=C(C)CCCC1(C)C (centres undefined) : True

Please find the next compound below.
Request: In plain terms: is recorded growth at least 80% for COc1cc(-c2c(C#N)c(-c3cccs3)nc3c2c(-c2ccccc2)nn3-c2ccccc2)ccc1O ?
Result: False

* * *

system: HT29 colon; assay: NCI-60 one-dose screen, 48 h; details: 10 µM unless noted
About 83,000 compounds went through this panel and 20% of them were active in at least one assay; those are over-represented in the sample as a whole. Activity calls are given as the source filed them. Rule for the calls: active = growth percent below 10; inactive = the rest.
Allowed answers: active, inactive

O=C1/C(=C\c2ccc(Br)o2)SC(=S)N1CCc1ccc(O)cc1 : inactive
CC1(C)CC[C@]2(CO)CC[C@]3(C)C(=CC[C@@H]4[C@@]5(C)CC[C@H](NCO)C(C)(C)[C@@H]5CC[C@]43C)[C@@H]2C1 : active
Cc1ccsc1-c1ccc2c(c1)COC2(CCCN(C)C)c1ccc(F)cc1 (stereo not drawn) : inactive
CC1(C)CC[C@]2(C(=O)Nc3ccccn3)CC[C@]3(C)C(=CC[C@@H]4[C@@]5(C)C/C(=C/c6ccncc6)C(=O)C(C)(C)[C@@H]5CC[C@]43C)[C@@H]2C1 : active
COc1ccc(-c2cc(-c3cccs3)n(N=O)c(=O)c2C#N)cc1 : inactive
CCN(CC)c1ccc(/C=C/c2cc(C)c3ccccc3n2)cc1 : active

Request: Query: recorded result category for COC(=O)[C@]12CC[C@@H](C)[C@H](C)[C@@H]1C1=CC[C@@H]3[C@@](C)(CC#N)C4=C(C[C@@]3(C)[C@]1(C)CC2)OC[C@]4(C)C=O in this test
Result: active

Request: Query: recorded result category for COc1ccc2c(c1)c(-c1nc(-c3cn(C)c4ncccc34)cs1)cn2CCCN1CCCCC1 in this test
Result: active
